# SYSTEM TESTED: recombinant SARS-CoV-2 RBD with C-terminal AviTag (SARS-CoV-2, UniProt P0DTC2 319-541)
# MEASUREMENT DESCRIPTION: ELISA, competition with coated ACE2-Fc for RBD [Cont. 1]
pIC50: −log10 of the molar value.
Could you label it 1 if measured pIC50 is 7 or higher, and -1 otherwise?

PP1158 MPB-scTRP-PAPA-R2d-D3-H6 (VHH, Form: Trimer) VHH: QVQLVESGGGLVQPGGSLRLSCAASGHIFSINNAAWVRQAPGKSREGVATIHSGGGTYYSDSVKGRFTISRDNAKNTVYLQMNSLKPEDTAVYYCNAEVSTGAGSRGRVSDVYWGQGTQVTVSS: 1
PP1134 MBP-4B0F-PAPA-R2d-D3-H6 (VHH, Form: Heptamer) VHH: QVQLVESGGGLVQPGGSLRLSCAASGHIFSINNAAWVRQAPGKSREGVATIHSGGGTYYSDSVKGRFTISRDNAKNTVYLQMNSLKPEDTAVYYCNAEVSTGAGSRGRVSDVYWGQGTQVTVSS: 1
PP1144 MBP-5HVZ-PAPA-R2c-F6-H6 (VHH, Form: Dimer) VHH: QVQLVESGGGLVQPGGSLRLSCAASGRILAANIVHWYRQAPGKEREGVAGITTGGSNYYSDSVKGRFTISRDNAKNTVYLQMNSLKPEDTAVYYCNALGLGSASGSYESWGQGTQVTVSS: 1

q: Check if pIC50 >= 7 (inclusive). Item: PP1181 R2d-D3-PP7-H6 (VHH) VHH: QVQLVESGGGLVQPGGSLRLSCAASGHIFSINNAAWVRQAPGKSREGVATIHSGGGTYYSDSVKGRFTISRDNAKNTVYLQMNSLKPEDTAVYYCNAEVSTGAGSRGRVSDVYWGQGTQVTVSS
a: -1

q: Next: PP1146 MBP-5HVZ-PAPA-R2d-D3-H6 (VHH, Form: Dimer) VHH: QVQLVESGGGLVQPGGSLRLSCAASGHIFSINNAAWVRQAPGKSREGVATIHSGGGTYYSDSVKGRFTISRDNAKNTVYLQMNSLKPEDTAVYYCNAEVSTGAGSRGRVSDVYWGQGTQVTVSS
a: 1

q: Next: PP1156 MPB-scTRP-PAPA-R2c-F6-H6 (VHH, Form: Trimer) VHH: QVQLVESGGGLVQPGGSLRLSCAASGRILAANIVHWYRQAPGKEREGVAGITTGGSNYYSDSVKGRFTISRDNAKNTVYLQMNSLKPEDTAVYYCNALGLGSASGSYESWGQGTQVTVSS
a: -1
